Values from paper PMC7156458

target: Aβ42 (Homo sapiens, UniProt P05067); assay: Th-T (thioflavin-T) assay of Aβ42 aggregation; assay type: biochemical; conditions: reading M111; compound at 50 (head suffix _50)
Sequence (P05067 672-713): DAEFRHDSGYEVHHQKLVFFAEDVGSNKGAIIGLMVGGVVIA
attribute measured: Th-T fluorescence, mean of three wells (Fig. 7a)
No unit in the answer, only the number.

stdin: Entry `C=C1CC[C@@H]2[C@](C)(CC[C@H]3O[C@H](C=C(C)C)C[C@@]23C)[C@@H]1Cc1c(OC)oc(CO)c(C)c1=O` : reported Th-T fluorescence, mean of three wells (Fig. 7a) = ?
stdout: 2.105

Next:
stdin: I am curious: what Th-T fluorescence, mean of three wells (Fig. 7a) value has been reported for C=C1CCC2C(C)(CCC=C(C)C)C(O)CCC2(C)C1Cc1c(OC)oc(CO)c(C)c1=O (centres unmarked) ?
stdout: 1.44

stdin: What does the record list as Th-T fluorescence, mean of three wells (Fig. 7a) for `C=C1CC[C@@H]2[C@](C)(CC[C@H]3O[C@H](C=C(C)C)C[C@@]23C)[C@@H]1Cc1c(OC)oc(CO)c(C(=O)OC)c1=O` ?
stdout: 0.4866

stdin: What value of Th-T fluorescence, mean of three wells (Fig. 7a) has been reported for the following compound? C=C1CCC2C(C)(CCC=C(C)C)C(O)CCC2(C)C1Cc1c(OC)oc(C)c(C(=O)OC)c1=O (centres unmarked)
stdout: 1.171

stdin: Query: Th-T fluorescence, mean of three wells (Fig. 7a); subject: C=C1CCC2C(C)(CCC=C(C)C)C(O)CCC2(C)C1Cc1c(OC)oc(CO)c(C(=O)OC)c1=O (centres unmarked)
stdout: 0.4751

====

# Th-T fluorescence, mean of three wells annotations
target: UniProtKB P05067; assay: Th-T (thioflavin-T) assay of Aβ42 aggregation; type: biochemical; details: time course, reading M61
Hey, just send me the number, nothing else.

stdin: # Th-T fluorescence, mean of three wells lookup, item C=C1CCC2C(C)(CCC=C(C)C)C(=O)CCC2(C)C1Cc1c(O)c(C)c(C)oc1=O (stereo not drawn)
stdout: 2.226

stdin: Consider the molecule shown here: C=C1CCC2C(C)(CC(=O)C=C(C)C)C(O)CCC2(C)C1Cc1c(OC)oc(CO)c(C)c1=O (stereo not drawn) What is its recorded Th-T fluorescence, mean of three wells?
stdout: 3.616

stdin: Bench note: what Th-T fluorescence, mean of three wells did C=C1CCC2C(C)(CC(=O)C=C(C)C)C(O)CCC2(C)C1Cc1c(OC)oc(C)c(C)c1=O (stereo not drawn) show?
stdout: 3.716

stdin: May I ask what Th-T fluorescence, mean of three wells has been recorded for `C=C1CC[C@H]2[C@]3(C)C[C@@H](C=C(C)C)O[C@H]3CC[C@]2(C)[C@@H]1Cc1c(O)c(C)c(C)oc1=O` ?
stdout: 2.703

stdin: // Th-T fluorescence, mean of three wells lookup, key: `C=C1CC[C@H]2[C@]3(C)C[C@H](C=C(C)C)O[C@H]3CC[C@]2(C)[C@@H]1Cc1c(O)c(C)c(C)oc1=O`
stdout: 3.131

stdin: Please give the measured Th-T fluorescence, mean of three wells for this molecule: `C=C1CC[C@H]2[C@]3(C)C[C@H](C=C(C)C)O[C@H]3CC[C@]2(C)[C@@H]1Cc1c(OC)oc(CO)c(C)c1=O`
stdout: 3.973

stdin: Request the reported Th-T fluorescence, mean of three wells associated with `CC(C)=CCC/C(C)=C/CC/C(C)=C/CC/C(C)=C/Cc1c(O)c(C)c(C)oc1=O`
stdout: 2.927

====

molecular target: Aβ42 (Homo sapiens); assay: Th-T (thioflavin-T) assay of Aβ42 aggregation; assay type: biochemical; conditions: column suffix _50; reading M89
Recorded Fig. 7a Th-T reading, mean of three wells by entry
Answer with a bare number; do not write a unit.

Look over these answered cases.
stdin: # input molecule: C=C1CCC2C(C)(CCC=C(C)C)C(O)CCC2(C)C1Cc1c(OC)oc(CO)c(C)c1=O (centres unmarked) [Compound 12] ; wanted: its Fig. 7a Th-T reading, mean of three wells
stdout: 1.396

stdin: Quick check: Fig. 7a Th-T reading, mean of three wells of C=C1CC[C@@H]2[C@](C)(CC[C@H]3O[C@H](C=C(C)C)C[C@@]23C)[C@@H]1Cc1c(OC)oc(CO)c(C(=O)OC)c1=O [Compound 21] ?
stdout: 0.4167

stdin: Would you kindly share the measured Fig. 7a Th-T reading, mean of three wells for C=C1CC[C@@H]2[C@](C)(CC[C@H]3O[C@H](C=C(C)C)C[C@@]23C)[C@@H]1Cc1c(OC)oc(CO)c(C)c1=O [Compound 20] ?
stdout: 2.095

***
stdin: What value of measured Fig. 7a Th-T reading, mean of three wells is listed for C=C1CCC2C(C)(CCC=C(C)C)C(O)CCC2(C)C1Cc1c(OC)oc(C)c(C(=O)OC)c1=O (centres unmarked) [Compound 14] ?
stdout: 1.8491

stdin: What does the record list as Fig. 7a Th-T reading, mean of three wells for C=C1CCC2C(C)(CCC=C(C)C)C(O)CCC2(C)C1Cc1c(OC)oc(CO)c(C(=O)OC)c1=O (centres unmarked) [Compound 13] ?
stdout: 0.4759

====

assay: cytotoxicity in Drosophila DL1 cells; assay type: cell-based; settings: Drosophila, DL1 cells (embryonic macrophage-derived), DL1 cells, 0.2 µM, replicate 2, relative to DMSO 1%; read-out: % viability, viability 2
attribute measured: viability at 0.2 µM (%)
Response body: numeric value in %, unit text excluded.

Example compounds with recorded viability at 0.2 µM:
stdin: # lookup: viability at 0.2 µM of `C=C1CC[C@@H]2[C@](C)(CC[C@H]3O[C@H](C=C(C)C)C[C@@]23C)[C@@H]1Cc1c(OC)oc(CO)c(C)c1=O`
stdout: 166

stdin: Can you look up the measured viability at 0.2 µM of `C=C1CC[C@H]2[C@]3(C)C[C@@H](C=C(C)C)O[C@H]3CC[C@]2(C)[C@@H]1Cc1c(O)c(C)c(C)oc1=O` for me?
stdout: 4.95

stdin: Given the entry C=C1CCC2C(C)(CC(=O)C=C(C)C)C(O)CCC2(C)C1Cc1c(O)c(C)c(C)oc1=O (stereo not shown) , report its measured viability at 0.2 µM.
stdout: 135

stdin: What viability at 0.2 µM value was documented for this compound, C=C1CCC2C(C)(CCC=C(C)C)C(O)CCC2(C)C1Cc1c(OC)oc(C)c(C(=O)OC)c1=O (stereo not shown) ?
stdout: 82.2

stdin: Item C=C1CCC2C(C)(CCC=C(C)C)C(O)CCC2(C)C1Cc1c(OC)oc(CO)c(C(=O)OC)c1=O (stereo not shown) has what recorded viability at 0.2 µM?
stdout: 70.5

stdin: Which viability at 0.2 µM value belongs to `C=C1CC[C@H]2[C@]3(C)C[C@@H](C=C(C)C)O[C@H]3CC[C@]2(C)[C@@H]1Cc1c(OC)oc(CO)c(C)c1=O` ?
stdout: 181

stdin: Please report the recorded viability at 0.2 µM for C=C1CCC2C(C)(CCC=C(C)C)C(O)CCC2(C)C1Cc1c(OC)oc(CO)c(C)c1=O (stereo not shown) .
stdout: 86.2

stdin: Need viability at 0.2 µM of C=C1CCC2C(C)(CCC=C(C)C)C(=O)CCC2(C)C1Cc1c(O)c(C)c(C)oc1=O (stereo not shown) , thanks.
stdout: 208

stdin: Entry `C=C1CC[C@@H]2[C@](C)(CC[C@H]3O[C@H](C=C(C)C)C[C@@]23C)[C@@H]1Cc1c(OC)oc(CO)c(C(=O)OC)c1=O` : reported viability at 0.2 µM = ?
stdout: 4.17

stdin: Given the entry `C=C1CC[C@H]2[C@]3(C)C[C@H](C=C(C)C)O[C@H]3CC[C@]2(C)[C@@H]1Cc1c(OC)oc(C)c(C)c1=O` , report its measured viability at 0.2 µM.
stdout: 47.4

Let us move to another entry and its viability at 0.2 µM.
stdin: Sample C=C1CCC2C(C)(CC(=O)C=C(C)C)C(O)CCC2(C)C1Cc1c(OC)oc(CO)c(C)c1=O (stereo not shown) — what was its viability at 0.2 µM?
stdout: 86.7

====

target: UniProt P05067; assay: Th-T (thioflavin-T) assay of Aβ42 aggregation; format: biochemical; settings: concentration 50, unit not given; time-course reading M137
Listed compounds paired with reported Th-T fluorescence of Aβ42 with compound, mean of three wells (Fig. 7a source data)
// no unit string in output, number only

Example compounds with recorded Th-T fluorescence of Aβ42 with compound, mean of three wells (Fig. 7a source data):
stdin: What does the data say about its Th-T fluorescence of Aβ42 with compound, mean of three wells (Fig. 7a source data)? Entry: C=C1CCC2C(C)(CCC=C(C)C)C(O)CCC2(C)C1Cc1c(OC)oc(C)c(C(=O)OC)c1=O (centres unmarked) [Compound 14]
stdout: 0.7873

stdin: Data request, read-out Th-T fluorescence of Aβ42 with compound, mean of three wells (Fig. 7a source data), for C=C1CC[C@@H]2[C@](C)(CC[C@H]3O[C@H](C=C(C)C)C[C@@]23C)[C@@H]1Cc1c(OC)oc(CO)c(C(=O)OC)c1=O [Compound 21]
stdout: 0.5003

stdin: I'd like to know its Th-T fluorescence of Aβ42 with compound, mean of three wells (Fig. 7a source data). The compound in question is C=C1CCC2C(C)(CCC=C(C)C)C(O)CCC2(C)C1Cc1c(OC)oc(CO)c(C(=O)OC)c1=O (centres unmarked) [Compound 13]
stdout: 0.4745

stdin: // Th-T fluorescence of Aβ42 with compound, mean of three wells (Fig. 7a source data) lookup, key: C=C1CC[C@@H]2[C@](C)(CC[C@H]3O[C@H](C=C(C)C)C[C@@]23C)[C@@H]1Cc1c(OC)oc(CO)c(C)c1=O [Compound 20]
stdout: 2.122

--- query ---
stdin: Th-T fluorescence of Aβ42 with compound, mean of three wells (Fig. 7a source data) lookup needed for C=C1CCC2C(C)(CCC=C(C)C)C(O)CCC2(C)C1Cc1c(OC)oc(CO)c(C)c1=O (centres unmarked) [Compound 12] , thanks.
stdout: 1.626
